These measurements were taken from ChEMBL document CHEMBL1201862.

- system.tested: Ataxin-2 (Homo sapiens) (UniProt Q99700)
- Sequence (Q99700 whole entry): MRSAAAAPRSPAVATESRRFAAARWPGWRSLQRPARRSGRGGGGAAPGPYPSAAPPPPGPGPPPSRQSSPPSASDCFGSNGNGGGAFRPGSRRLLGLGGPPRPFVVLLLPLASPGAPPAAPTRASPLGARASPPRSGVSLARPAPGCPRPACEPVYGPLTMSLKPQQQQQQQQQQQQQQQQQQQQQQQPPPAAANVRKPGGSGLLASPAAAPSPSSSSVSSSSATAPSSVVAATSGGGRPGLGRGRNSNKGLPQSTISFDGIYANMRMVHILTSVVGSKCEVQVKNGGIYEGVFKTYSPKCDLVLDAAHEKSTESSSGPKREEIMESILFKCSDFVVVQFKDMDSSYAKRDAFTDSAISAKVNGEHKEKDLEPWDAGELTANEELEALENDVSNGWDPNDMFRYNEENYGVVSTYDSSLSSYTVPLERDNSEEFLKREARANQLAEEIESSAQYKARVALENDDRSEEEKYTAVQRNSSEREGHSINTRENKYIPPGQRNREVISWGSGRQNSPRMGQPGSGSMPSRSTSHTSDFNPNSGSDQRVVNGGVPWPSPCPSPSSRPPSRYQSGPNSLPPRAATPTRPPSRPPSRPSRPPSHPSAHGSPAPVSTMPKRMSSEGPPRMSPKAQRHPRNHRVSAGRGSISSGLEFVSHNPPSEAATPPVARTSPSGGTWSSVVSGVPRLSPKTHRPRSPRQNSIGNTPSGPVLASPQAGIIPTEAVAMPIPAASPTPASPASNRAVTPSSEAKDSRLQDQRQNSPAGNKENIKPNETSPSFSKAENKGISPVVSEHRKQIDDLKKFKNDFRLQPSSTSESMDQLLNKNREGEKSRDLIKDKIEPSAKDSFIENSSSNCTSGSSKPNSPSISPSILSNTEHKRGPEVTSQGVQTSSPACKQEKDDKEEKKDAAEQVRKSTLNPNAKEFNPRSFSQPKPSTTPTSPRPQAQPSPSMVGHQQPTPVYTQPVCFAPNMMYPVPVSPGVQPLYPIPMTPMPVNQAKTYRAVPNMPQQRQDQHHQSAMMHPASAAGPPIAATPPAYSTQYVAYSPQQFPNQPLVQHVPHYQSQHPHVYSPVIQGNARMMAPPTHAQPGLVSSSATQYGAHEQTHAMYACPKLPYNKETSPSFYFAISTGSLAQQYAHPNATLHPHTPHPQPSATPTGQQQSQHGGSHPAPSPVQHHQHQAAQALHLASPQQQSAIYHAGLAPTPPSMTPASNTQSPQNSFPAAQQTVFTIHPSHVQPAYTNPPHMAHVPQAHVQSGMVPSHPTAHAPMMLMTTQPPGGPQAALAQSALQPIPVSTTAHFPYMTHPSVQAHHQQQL
- assay.text: qHTS for Inhibitors of ATXN expression.
- Type: functional
The whole screen tested about 400,000 compounds, of which about 2,100 (0.53%) were called active. Another 14% or so got no clear call; they are omitted. The rule behind the calls is not given here. The entries come from a sample that favours actives as a whole.
Select the matching outcome among active, inactive

1) COc1ccc(C2=NN(C(=O)c3ccccc3)C(c3ccc(OC)c(OC)c3)C2)c(O)c1 (configuration not stated) | inactive
2) c1ccn2c(c1)nc1c2nc2ccccn21 | inactive
3) COc1ccc2c(c1)C(=NNc1ccc(C(=O)O)cc1)c1cc(OC)ccc1-2 | active
4) Cc1ccc(C(=O)N2N=C(c3ccc(Br)cc3)CC2c2ccccc2O)cc1 (configuration not stated) | active
5) CNC(=O)c1cc(NC(=O)CCn2nc(-c3ccccc3)c3ccccc3c2=O)ccc1OC | inactive
6) CCN(CC)c1ccc2cc(S(=O)(=O)c3ccc(Cl)cc3)c(=O)oc2c1 | inactive

**Query** Returns: the outcome recorded for Cc1ccc(C2=CC(c3ccc(C)cc3)n3ncnc3N2)cc1 (configuration not stated) in this assay.
**Result** inactive

**Query** Returns: the outcome recorded for `O=C(CN1C(=O)NC2(CCCC2)C1=O)Oc1ccc2ccc(=O)oc2c1` in this assay.
**Result** inactive

**Query** Returns: the outcome recorded for `COc1ccc2c(c1)CCc1cn3nc(C)cc3nc1-2` in this assay.
**Result** inactive

**Query** Returns: the outcome recorded for `c1ccc2cc3c(NCCN4CCOCC4)ccnc3cc2c1` in this assay.
**Result** inactive

**Query** Returns: the outcome recorded for `COc1ccc(-c2cc3ccc(O)c(CN4CCC(C)CC4)c3oc2=O)cc1OC` in this assay.
**Result** inactive

* * *

- system.tested: Ataxin-2 (Homo sapiens) (UniProt Q99700)
- assay.text: qHTS for Inhibitors of ATXN expression.
- Assay type: functional
The campaign covered roughly 400,000 compounds. About 2,100 (0.53%) were called active. Another 14% or so got no clear call; they are omitted. No rule for the calls is given here. The sample holds actives, similar compounds and a random draw of the others, so the mix is not that of the screen.
Select the matching outcome among active, inactive

Answered examples (8):
1. N#Cc1c(N2CCCC2)ccc(Br)c1Cl | inactive
2. CCN(CC)CCN1C2=C(C(=O)CC(C)(C)C2)C(c2cccc(F)c2)C2=C1CC(C)(C)CC2=O | inactive
3. COc1ccc(C(=O)/C=C/C(=O)N(CC(=O)NC2CCCCC2)Cc2ccc(F)cc2)c(O)c1 | active
4. Cc1cccc(N2CCN(S(=O)(=O)c3cccs3)CC2)c1C | inactive
5. OC(C#CCN1CCCC1)(c1ccccc1)c1cccnc1 (stereo not drawn) | inactive
6. CCOC(=O)c1c(SCC(=O)Nc2nccs2)nc(C)c(C)c1C | inactive
7. N=c1c(C(=O)NCC2CCCO2)cc2c(=O)n3ccccc3nc2n1Cc1ccc(Cl)cc1 (stereo not drawn) | inactive
8. CC(/C=C(\O)c1ccc(Br)cc1)=N/NC(=O)c1ccccc1 | inactive

**Query** Returns: the outcome recorded for O=C1c2oc3ccc(Cl)cc3c(=O)c2C(c2ccccn2)N1CCCN1CCOCC1 (stereo not drawn) in this assay.
**Result** inactive

**Query** Returns: the outcome recorded for `COc1ccc(C(=O)NCCNc2nc3c(C)cccc3cc2C#N)cc1OC` in this assay.
**Result** inactive

**Query** Returns: the outcome recorded for `O=C(O)c1ccc(COc2ccc3ccccc3c2/C=C2/NC(=O)N(Cc3ccc(F)cc3)C2=O)cc1` in this assay.
**Result** inactive

**Query** Returns: the outcome recorded for COCCn1c(SC2CCCCC2=O)nnc1-c1ccncc1 (stereo not drawn) in this assay.
**Result** inactive

**Query** Returns: the outcome recorded for `Cc1nc(-c2ccccc2)sc1-c1ccnn1C` in this assay.
**Result** inactive

**Query** Returns: the outcome recorded for COc1ccc(C2C=C(c3ccccc3)Nc3ncnn32)cc1 (stereo not drawn) in this assay.
**Result** inactive
